experiment: NCI Yeast Anticancer Drug Screen. Data for the mec2-1 strain (AID 157); conditions: S. cerevisiae mec2-1 strain, at 50.0 µM, stronger effect = higher value
Compounds without any hit were thinned out: in the full panel of roughly 79,000, 15% have a hit.
Result type: growth inhibition (%)
Reply with just the number (in %).

Example entries and their recorded answers appear below.
CC1=Nc2ccc(C)cc2N=C(C)C1    4.1
CC(C)(C)NC(=O)Oc1ccccc1C(N)=O    -3.45
CC(=N/NC(=S)NCCN1CCCC1)/C(C)=N\NC(=S)NCCN1CCCC1    4.95
O=C1OC2(CC1n1cnc3ccccc3c1=O)C(=O)Nc1ccccc12 (configuration not stated)    -21.2
C#C/C=C/CC(OC(C)=O)C1C/C=C\CC(Br)C(CC)O1 (configuration not stated)    16.5

*Q* What value of growth inhibition has been recorded for this entry: `O=C(O)c1c(O)ccc(O)c1C(=O)O`
*A* -30.8

*Q* What value of growth inhibition has been recorded for this entry: `CN=C(N)N/N=C(\c1ccccc1)c1ccc(Cl)cc1`
*A* 11.6

*Q* What value of growth inhibition has been recorded for this entry: `CC1=Nc2cc(C)c(C)cc2NC(=O)C1`
*A* -43.9

*Q* What value of growth inhibition has been recorded for this entry: CCCC(=O)OC(C)CC(C)C (configuration not stated)
*A* -13.7

*Q* What value of growth inhibition has been recorded for this entry: O=C1CCCC(c2ccccc2)O1 (configuration not stated)
*A* -14.2

*Q* What value of growth inhibition has been recorded for this entry: `COc1cc2ccc3c(c2cc1OC)CCc1cn[nH]c1-3`
*A* 3.4

*Q* What value of growth inhibition has been recorded for this entry: `Nc1nc(N)c(NC(=O)CCCO)c(=O)[nH]1`
*A* -2.35

###

assay: NCI Yeast Anticancer Drug Screen. Data for the rad50 strain (AID 155);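 note: 0% = growth of vehicle-only cultures of the same strain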; details: S. cerevisiae rad50 strain growth inhibition; at 50.0 µM; stronger effect = higher value
The panel holds about 79,000 compounds, 15% with a hit somewhere; the sample as a whole holds those more often. Activity calls are given as the source filed them. Cut-off read from the data, not from the text of the source: active = growth inhibition above about 70%; inactive = the rest.
Result type: growth inhibition

Example entries and their recorded answers appear below.
O=CN1CCN(C=S)CC1    -14% (inactive)
CC1=CC2(C)OC3C(=O)N(c4ccc(Cl)cc4)C(=O)C3C2N=C1 (centres undefined)    -7.65% (inactive)
O=C1/C(=C/c2ccco2)N=C2Sc3c(nc[nH]c3=O)N12    2.4% (inactive)
O=C(O)CCSc1nc2c(=O)[nH][nH]c(=O)c2n1Cc1ccccc1    7.2% (inactive)

*Q* What value of growth inhibition has been recorded for this entry: `O=C1CCCCCC1`
*A* 9.95% (inactive)

*Q* What value of growth inhibition has been recorded for this entry: CC(NC(=O)Nc1ccccc1Cl)c1ccccc1 (centres undefined)
*A* -2.05% (inactive)

*Q* What value of growth inhibition has been recorded for this entry: CCOC(=O)CCC(N)C(N)=O (centres undefined)
*A* 28.2% (inactive)

*Q* What value of growth inhibition has been recorded for this entry: `Cc1ccc(C(=O)Nc2ccc(CP(=O)(O)O)cc2CP(=O)(O)O)cc1NC(=O)Nc1cc(C(=O)Nc2ccc(CP(=O)(O)O)cc2CP(=O)(O)O)ccc1C`
*A* -10.8% (inactive)

*Q* What value of growth inhibition has been recorded for this entry: N#CC1(C2CC(=O)N(c3ccccc3)C2=O)CCCCC1=O (centres undefined)
*A* 10.4% (inactive)

*Q* What value of growth inhibition has been recorded for this entry: CCOc1ccccc1NC(=O)CC(C(=O)OC)C(=O)C(=O)OC (centres undefined)
*A* -10% (inactive)

###

Assay: NCI Yeast Anticancer Drug Screen. Data for the mlh1 rad18 strain (AID 175)
Settings: S. cerevisiae mlh1 rad18 strain growth inhibition; at 50.0 µM; stronger effect = higher value
Method: Growth inhibition of yeast strains with defined genetic alterations is measured as a screen for potential anti-cancer activity. Selected strains with alterations in DNA damage repair or cell cycle control were exposed to compounds and growth inhibition was measured relative to vehicle treated controls. The strain used in this assay is mlh1 rad18
About 79,000 compounds went through this panel and 15% of them were active in at least one assay; those are over-represented in the sample as a whole.
Result type: growth inhibition (%)
Reply with just the number (in %).

O=C(O)c1ccccc1-c1ccccc1C(=O)Nc1ccc2c(c1)[nH]c(=O)c1ccccc12    -22.3
O=C(NCc1cccs1)OC1CC2CCC1C2 (configuration not stated)    20.4
COc1ccc(CCN(C)C2c3ccccc3C=Cc3ccccc32)cc1OC    8.65
Cc1cc(SCC(=O)c2ccccc2)nc2ccccc12    -2.7
C[N+](C)(N)c1nc(N)c(C#N)c(C#N)c1C#N    13.8

*Q* What value of growth inhibition has been recorded for this entry: `Nc1cccc2c1-c1ccc([N+](=O)[O-])cc1C2=O`
*A* 4.25

*Q* What value of growth inhibition has been recorded for this entry: `O=C1CN(CCCO)CC(=O)N2Cc3ccccc3CN12`
*A* -11.3

###

Reported growth inhibition by item:
assay: NCI Yeast Anticancer Drug Screen. Data for the bub3 strain (AID 167); conditions: S. cerevisiae bub3 mutant strain, at 50.0 µM, stronger effect = higher value
About 79,000 compounds went through this panel and 15% of them were active in at least one assay; those are over-represented in the sample as a whole.
Reply with just the number (in %).

Example entries and their recorded answers appear below.
CC(NC(=O)C(N)CC(=O)O)C(=O)OC12CC3CC(CC(C3)C1)C2 (configuration not stated)    12.7
CC(C)(C#N)CCCCC(N)=O    -19.1

*Q* What value of growth inhibition has been recorded for this entry: `COc1cc(OC)c(OC)cc1/C=C/c1cc[n+](C)c2ccccc12`
*A* 4.95

*Q* What value of growth inhibition has been recorded for this entry: `Cc1nc2c(=O)n3c4c(cccc4c2o1)CCC3`
*A* 14.5

*Q* What value of growth inhibition has been recorded for this entry: CCN(CC)C(=O)C1Cc2ccccc2N(C)C1 (configuration not stated)
*A* 3.05

###

assay: NCI Yeast Anticancer Drug Screen. Data for the mlh1 rad18 strain (AID 175); conditions: S. cerevisiae mlh1 rad18 strain growth inhibition; at 50.0 µM; stronger effect = higher value
About 79,000 compounds went through this panel and 15% of them were active in at least one assay; those are over-represented in the sample as a whole.
Reported growth inhibition by item:
Reply with just the number (in %).

CC(C)CN(CC(C)C)C(=O)c1ccc([N+](=O)[O-])cc1    20.9

Okay, now this molecule:
*Q* What value of growth inhibition has been recorded for this entry: `CCCCc1c2c(nn1C(C)=O)C(=O)C=C(Nc1ccccc1)C2=O`
*A* 9.5

###

Experiment: NCI Yeast Anticancer Drug Screen. Data for the rad50 strain (AID 155);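 note: 0% = growth of vehicle-only cultures of the same strain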
Conditions: S. cerevisiae rad50 strain growth inhibition; at 50.0 µM; stronger effect = higher value
Experimental: Growth inhibition of yeast strains with defined genetic alterations is measured as a screen for potential anti-cancer activity. Selected strains with alterations in DNA damage repair or cell cycle control were exposed to compounds and growth inhibition was measured relative to vehicle treated controls. The strain used in this assay is rad50
About 79,000 compounds went through this panel and 15% of them were active in at least one assay; those are over-represented in the sample as a whole.
Result type: growth inhibition (%)
Reply with just the number (in %).

*Q* What value of growth inhibition has been recorded for this entry: COC(=O)C(Cc1ccccc1)NCCN (stereo not drawn)
*A* -0.1

*Q* What value of growth inhibition has been recorded for this entry: `C=CCNc1ccc(Cl)cc1Cl`
*A* -3.5

*Q* What value of growth inhibition has been recorded for this entry: `Clc1cccc(NCNC2Nc3ccccc3N2)c1`
*A* 39

###

assay: NCI Yeast Anticancer Drug Screen. Data for the bub3 strain (AID 167); settings: S. cerevisiae bub3 mutant strain, at 50.0 µM, stronger effect = higher value
About 79,000 compounds went through this panel and 15% of them were active in at least one assay; those are over-represented in the sample as a whole.
Result type: growth inhibition (%)
Reply with just the number (in %).

[C-]#[N+]C(=C\c1ccc(O)cc1)/C(=C/c1ccc(O)cc1)[N+]#[C-]    98.1

Okay, now this compound:
*Q* What value of growth inhibition has been recorded for this entry: c1ccc(C(c2ccc3c(c2)CCCC3)C(c2ccccc2)(c2ccccc2)c2ccccc2)cc1 (stereo unspecified)
*A* -3.65

###

assay: NCI Yeast Anticancer Drug Screen. Data for the cln2 rad14 strain (AID 165);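 note: 0% = growth equal to vehicle treated cultures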; conditions: S. cerevisiae cln2 rad14 strain, at 50.0 µM
This is part of a sample that, as a whole, favours compounds with a hit. Of some 79,000 tested, about 15% had one in any assay. Active and inactive are the calls of the source. Rule as the data show it: active = growth inhibition above about 70%; inactive = the rest.
Your reply should match one of these outcome classes. active, inactive

Previously resolved entries follow.
COc1ccc(/C=C(\Cl)c2ccc(OC)cc2)cc1    inactive
CC1(C)Cc2ccccc2C1=O    inactive
CC[Si](/C=C(/C)C(C)(C)C)(CC)CC    inactive
CCC(CC)OCc1ccccc1    inactive
CCN(CC)CCOc1cc(C(C)C)ccc1C    active
C(=C\c1ccc2ccc(/C=C/c3ccccc3)cc2c1)/c1ccccc1    inactive

*Q* Recorded test outcome, item `CC1(C)C=C(C(=O)ON2C(=O)CCC2=O)C(C)(C)N1O`
*A* inactive

*Q* Recorded test outcome, item `NS(=O)(=O)c1cccc([N+](=O)[O-])c1`
*A* inactive

*Q* Recorded test outcome, item `O=C(/C=C/c1ccccc1)c1ccc(O)cc1O`
*A* inactive
